# Assay details: Pharmacokinetics in dogs after SC and IV administration
# Details: dog, in vivo, sc, 0.1 mg/kg, T½ β
Where a SMILES comes first, the peptide text is derived from it. [ ]: non-standard residue; d: D form. Arg(Me) = CNC(=N)NCCC[C@H](N)C(=O)O; Hyp = O=C(O)[C@@H]1C[C@@H](O)CN1; azaGly = NNC(=O)O
Recorded endpoint: half-life (h)
# number only, unit h dropped from output

Dear colleague, I am looking for the recorded half-life of the following compound: CNC(=N)NCCC[C@H](NC(=O)[C@H](CC(C)C)NC(=O)NNC(=O)[C@H](Cc1ccccc1)NC(=O)[C@@H](NC(=O)[C@H](CC(N)=O)NC(=O)[C@@H]1C[C@@H](O)CN1C(=O)[C@@H](Cc1ccc(O)cc1)NC(C)=O)[C@@H](C)O)C(=O)N[C@@H](Cc1c[nH]c2ccccc12)C(N)=O [Compound 1] (Ac-[dY][Hyp]NTF[azaGly]L[Arg(Me)]W-NH2)
1.4

----------
# Assay details: Single dose PK, phase 1, healthy Japanese men
# Format: in vivo, human
# Details: male, human, plasma, sc, 0.25 mg, single SC bolus 0.25 mg, mean
Where a SMILES comes first, the peptide text is derived from it. [ ]: non-standard residue; d: D form. Arg(Me) = CNC(=N)NCCC[C@H](N)C(=O)O; Hyp = O=C(O)[C@@H]1C[C@@H](O)CN1; azaGly = NNC(=O)O
Recorded endpoint: Cmax (ng/mL)
Give just the number in ng/mL; leave the unit off.

Field request: Cmax | item: CC(=O)O.CNC(=N)NCCC[C@H](NC(=O)[C@H](CC(C)C)NC(=O)NNC(=O)[C@H](Cc1ccccc1)NC(=O)[C@@H](NC(=O)[C@H](CC(N)=O)NC(=O)[C@@H]1C[C@@H](O)CN1C(=O)[C@@H](Cc1ccc(O)cc1)NC(C)=O)[C@@H](C)O)C(=O)N[C@@H](Cc1c[nH]c2ccccc12)C(N)=O [API-MA] (Ac-[dY][Hyp]NTF[azaGly]L[Arg(Me)]W-NH2)
5.9

----------
# Assay details: 1-month depot PK, prostate cancer patients
# Type: in vivo, human
# Details: male, human, plasma; prostate cancer patients, 1-month depot SC 6 mg/month; read-out: Tmax (median)
Where a SMILES comes first, the peptide text is derived from it. [ ]: non-standard residue; d: D form. Arg(Me) = CNC(=N)NCCC[C@H](N)C(=O)O; Hyp = O=C(O)[C@@H]1C[C@@H](O)CN1; azaGly = NNC(=O)O
Recorded endpoint: Tmax (h)
Provide only the numeric value, understood in h.

Query: Tmax; subject: CC(=O)O.CNC(=N)NCCC[C@H](NC(=O)[C@H](CC(C)C)NC(=O)NNC(=O)[C@H](Cc1ccccc1)NC(=O)[C@@H](NC(=O)[C@H](CC(N)=O)NC(=O)[C@@H]1C[C@@H](O)CN1C(=O)[C@@H](Cc1ccc(O)cc1)NC(C)=O)[C@@H](C)O)C(=O)N[C@@H](Cc1c[nH]c2ccccc12)C(N)=O [API-MA] (Ac-[dY][Hyp]NTF[azaGly]L[Arg(Me)]W-NH2)
2

----------
# Assay details: Pharmacokinetics in rats after SC and IV administration
# Details: rat, in vivo, iv, 1 mg/kg, rats, IV 1 mg/kg; read-out: AUC(0-24)
Where a SMILES comes first, the peptide text is derived from it. [ ]: non-standard residue; d: D form. Arg(Me) = CNC(=N)NCCC[C@H](N)C(=O)O; Hyp = O=C(O)[C@@H]1C[C@@H](O)CN1; azaGly = NNC(=O)O
Recorded endpoint: AUC(0-t) (ng·h/mL)
Answer in ng·h/mL, number only, no unit symbol.

I am curious: what AUC(0-t) value has been reported for CC(=O)O.CNC(=N)NCCC[C@H](NC(=O)[C@H](CC(C)C)NC(=O)NNC(=O)[C@H](Cc1ccccc1)NC(=O)[C@@H](NC(=O)[C@H](CC(N)=O)NC(=O)[C@@H]1C[C@@H](O)CN1C(=O)[C@@H](Cc1ccc(O)cc1)NC(C)=O)[C@@H](C)O)C(=O)N[C@@H](Cc1c[nH]c2ccccc12)C(N)=O [API-MA] (Ac-[dY][Hyp]NTF[azaGly]L[Arg(Me)]W-NH2) ?
1460

----------
# Assay details: Pharmacokinetics in dogs after SC and IV administration
# Details: dog, in vivo, sc, 1 mg/kg
Where a SMILES comes first, the peptide text is derived from it. [ ]: non-standard residue; d: D form. Arg(Me) = CNC(=N)NCCC[C@H](N)C(=O)O; Hyp = O=C(O)[C@@H]1C[C@@H](O)CN1; azaGly = NNC(=O)O
Recorded endpoint: Tmax
Record the result as a number with its unit.

Look up Tmax: CNC(=N)NCCC[C@H](NC(=O)[C@H](CC(C)C)NC(=O)NNC(=O)[C@H](Cc1ccccc1)NC(=O)[C@@H](NC(=O)[C@H](CC(N)=O)NC(=O)[C@@H]1C[C@@H](O)CN1C(=O)[C@@H](Cc1ccc(O)cc1)NC(C)=O)[C@@H](C)O)C(=O)N[C@@H](Cc1c[nH]c2ccccc12)C(N)=O [Compound 1] (Ac-[dY][Hyp]NTF[azaGly]L[Arg(Me)]W-NH2)
48 min

----------
# Assay details: Pharmacokinetics in rats after SC and IV administration
# Details: rat, in vivo, sc, 1 mg/kg
Where a SMILES comes first, the peptide text is derived from it. [ ]: non-standard residue; d: D form. Arg(Me) = CNC(=N)NCCC[C@H](N)C(=O)O; Hyp = O=C(O)[C@@H]1C[C@@H](O)CN1; azaGly = NNC(=O)O
Recorded endpoint: bioavailability (%)
Give the quantity in %, number only.

For the molecule shown here, CNC(=N)NCCC[C@H](NC(=O)[C@H](CC(C)C)NC(=O)NNC(=O)[C@H](Cc1ccccc1)NC(=O)[C@@H](NC(=O)[C@H](CC(N)=O)NC(=O)[C@@H]1C[C@@H](O)CN1C(=O)[C@@H](Cc1ccc(O)cc1)NC(C)=O)[C@@H](C)O)C(=O)N[C@@H](Cc1c[nH]c2ccccc12)C(N)=O [Compound 1] (Ac-[dY][Hyp]NTF[azaGly]L[Arg(Me)]W-NH2) , give the reported bioavailability.
55.3

----------
# Assay details: Pharmacokinetics in dogs after SC and IV administration
# Details: dog, in vivo; dogs, SC 0.1 mg/kg; read-out: BA (bioavailability)
# Excerpt: The PK of API-MA was studied in dogs after SC and IV administration.
Where a SMILES comes first, the peptide text is derived from it. [ ]: non-standard residue; d: D form. Arg(Me) = CNC(=N)NCCC[C@H](N)C(=O)O; Hyp = O=C(O)[C@@H]1C[C@@H](O)CN1; azaGly = NNC(=O)O
Recorded endpoint: bioavailability (%)
Give a bare numeral; the unit % is implied.

Find the recorded bioavailability belonging to CC(=O)O.CNC(=N)NCCC[C@H](NC(=O)[C@H](CC(C)C)NC(=O)NNC(=O)[C@H](Cc1ccccc1)NC(=O)[C@@H](NC(=O)[C@H](CC(N)=O)NC(=O)[C@@H]1C[C@@H](O)CN1C(=O)[C@@H](Cc1ccc(O)cc1)NC(C)=O)[C@@H](C)O)C(=O)N[C@@H](Cc1c[nH]c2ccccc12)C(N)=O [API-MA] (Ac-[dY][Hyp]NTF[azaGly]L[Arg(Me)]W-NH2) and report it.
81.5

----------
# Assay details: Pharmacokinetics in monkeys after SC and IV administration
# Details: monkey, in vivo, sc, 1 mg/kg
# From the text: The PK of API-MA was studied in monkeys after SC and IV administration.
Where a SMILES comes first, the peptide text is derived from it. [ ]: non-standard residue; d: D form. Arg(Me) = CNC(=N)NCCC[C@H](N)C(=O)O; Hyp = O=C(O)[C@@H]1C[C@@H](O)CN1; azaGly = NNC(=O)O
Recorded endpoint: AUC(0-t) (ng·h/mL)
// note: answer is a bare numeric in ng·h/mL

Given the compound CNC(=N)NCCC[C@H](NC(=O)[C@H](CC(C)C)NC(=O)NNC(=O)[C@H](Cc1ccccc1)NC(=O)[C@@H](NC(=O)[C@H](CC(N)=O)NC(=O)[C@@H]1C[C@@H](O)CN1C(=O)[C@@H](Cc1ccc(O)cc1)NC(C)=O)[C@@H](C)O)C(=O)N[C@@H](Cc1c[nH]c2ccccc12)C(N)=O [Compound 1] (Ac-[dY][Hyp]NTF[azaGly]L[Arg(Me)]W-NH2) , what is its reported AUC(0-t)?
2790

----------
# Assay details: Pharmacokinetics in dogs after SC and IV administration
# Details: dog, in vivo; dogs, SC 1 mg/kg; read-out: BA (bioavailability)
Where a SMILES comes first, the peptide text is derived from it. [ ]: non-standard residue; d: D form. Arg(Me) = CNC(=N)NCCC[C@H](N)C(=O)O; Hyp = O=C(O)[C@@H]1C[C@@H](O)CN1; azaGly = NNC(=O)O
Recorded endpoint: bioavailability (%)
Respond numerically; units are % and should not be typed.

Would you kindly share the measured bioavailability for CC(=O)O.CNC(=N)NCCC[C@H](NC(=O)[C@H](CC(C)C)NC(=O)NNC(=O)[C@H](Cc1ccccc1)NC(=O)[C@@H](NC(=O)[C@H](CC(N)=O)NC(=O)[C@@H]1C[C@@H](O)CN1C(=O)[C@@H](Cc1ccc(O)cc1)NC(C)=O)[C@@H](C)O)C(=O)N[C@@H](Cc1c[nH]c2ccccc12)C(N)=O [API-MA] (Ac-[dY][Hyp]NTF[azaGly]L[Arg(Me)]W-NH2) ?
84
